- Assay Summary: PAMPA (parallel artificial membrane permeability assay)
- Assay type: in vitro ADME
- Description: PAMPA – methods and results (Table S2) PAMPA was carried out in 96-well microtiter filter plates obtained from Millipore as described1 with some modifications. […] UV absorption was measured at wavelengths between 220 and 340 nm using a microplate reader (CLARIOstar). […] The artificial membrane permeability is expressed as fraction absorbed (Fa%)2 or log Pe (log of the effective permeability)1. LogD values at pH 7.4 were calculated using MarvinSketch. […]
Outcome Measure: membrane permeability in PAMPA (in words)

1. Cc1ncc(Cn2cc(CCCCC(=O)[O-])nn2)c(N)n1.[K+] [16b]
impermeable
2. Cc1ncc(Cn2cc(CCCC(=O)[O-])nn2)c(N)n1.[K+] [16a]
impermeable
3. Cc1ncc(Cn2cc(CCOP(=O)(O)O)nn2)c(N)n1
membrane-impermeable
4. COC(=O)CCCCc1cn(Cc2cnc(C)nc2N)nn1 [15b]
membrane-permeable
5. COC(=O)CCCc1cn(Cc2cnc(C)nc2N)nn1 [15a]
membrane-permeable
6. Cc1ncc(Cn2cc(CCCC(C(=O)[O-])C(=O)[O-])nn2)c(N)n1.[K+].[K+] [14b]
membrane-impermeable
7. Cc1ncc(Cn2cc(CCC(C(=O)[O-])C(=O)[O-])nn2)c(N)n1.[K+].[K+] [14a]
impermeable
8. COC(=O)C(CCc1cn(Cc2cnc(C)nc2N)nn1)C(=O)OC [13a]
membrane-permeable
